Record type: pIC50 measurement. Applies to: CDK5-p25 (Homo sapiens (Human), UniProt Q00535)
// field semantics: pIC50 = negative decimal log of concentration (mol/L)

Consider the reported pIC50 for these molecules:
>>> readout_number("NS(=O)(=O)c1ccc(Nc2ncc3cc4n(c3n2)C2(CCCCC2)C(=O)NC4O)cc1 (stereo not drawn) [Compound 1]")
9.10
>>> readout_number("NS(=O)(=O)c1ccc(Nc2ncc3cc4n(c3n2)C2(CCCCC2)C(=O)N[C@H]4CF)cc1 [Compound 18]")
7.77

Please look at the following molecule next.
Inquiry: Which pIC50 is reported with CDK5-p25 (Homo sapiens (Human), UniProt Q00535) for this entry: NS(=O)(=O)c1ccc(Nc2ncc3cc4n(c3n2)C2(CCCCC2)CC(=O)N4)cc1 [Compound 2] ?
Reply text: 8.89
